These compounds were tested on D(2) dopamine receptor (Homo sapiens, UniProt P14416); pKi is the recorded read-out.
Sequence (P14416 whole entry): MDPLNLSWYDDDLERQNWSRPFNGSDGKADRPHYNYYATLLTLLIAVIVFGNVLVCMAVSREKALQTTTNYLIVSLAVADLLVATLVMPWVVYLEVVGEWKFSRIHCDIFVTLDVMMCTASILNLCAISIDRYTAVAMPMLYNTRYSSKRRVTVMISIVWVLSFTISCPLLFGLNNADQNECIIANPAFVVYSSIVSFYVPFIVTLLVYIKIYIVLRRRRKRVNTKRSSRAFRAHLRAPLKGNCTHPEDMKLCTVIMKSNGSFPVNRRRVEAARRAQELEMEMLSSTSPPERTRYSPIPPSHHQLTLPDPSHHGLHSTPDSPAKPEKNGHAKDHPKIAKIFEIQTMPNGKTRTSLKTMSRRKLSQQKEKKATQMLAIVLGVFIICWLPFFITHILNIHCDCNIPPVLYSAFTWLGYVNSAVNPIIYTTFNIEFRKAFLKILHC
Expect pKi as a plain number equal to -log10 of the molar concentration.

COMPOUND	VALUE REPORTED
O=C(NCCCCN1CCN(c2cccc(Cl)c2Cl)CC1)c1cc2cc(Br)ccc2o1	5.00
COc1ccccc1N1CCN(CCCCNC(=O)c2cc3cc(C#N)ccc3[nH]2)CC1	6.85
c1ccc(C2CCN(Cc3cn(-c4ccccc4)nn3)CC2)cc1	6.66
C#Cc1ccc2sc(C(=O)NCCCCN3CCN(c4ccccc4OC)CC3)cc2c1	6.39

pKi measured on COc1ccccc1N1CCN(CCCCCNC(=O)c2nnn(Cc3ccccc3Br)c2C)CC1 = 8.31

====

Listed below: Ki values for each entry.
# TARGET SYSTEM: D(1A) dopamine receptor (Sus scrofa)
# Sequence (P50130 whole entry): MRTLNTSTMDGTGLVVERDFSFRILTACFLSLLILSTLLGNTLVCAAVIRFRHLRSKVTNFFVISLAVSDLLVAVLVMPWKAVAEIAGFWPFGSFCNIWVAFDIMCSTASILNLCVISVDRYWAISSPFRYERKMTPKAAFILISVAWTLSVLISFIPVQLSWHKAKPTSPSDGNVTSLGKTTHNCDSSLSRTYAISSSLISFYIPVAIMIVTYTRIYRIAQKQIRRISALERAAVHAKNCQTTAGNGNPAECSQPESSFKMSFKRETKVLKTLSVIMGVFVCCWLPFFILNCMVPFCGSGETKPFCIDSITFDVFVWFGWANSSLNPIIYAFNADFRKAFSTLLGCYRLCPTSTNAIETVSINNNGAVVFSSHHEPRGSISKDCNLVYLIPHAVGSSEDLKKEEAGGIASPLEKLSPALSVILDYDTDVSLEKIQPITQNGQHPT
# ASSAY DETAILS: Displacement of [3H][…] from porcine dopamine D1 in porcine striatal membrane
Include the unit after the number when you answer.

COMPOUND	TARGET SYSTEM	VALUE REPORTED
COc1ccccc1N1CCN(CCCCNC(=O)c2ccc(-c3ccc([18F])nc3)cc2)CC1	D(1A) dopamine receptor (Sus scrofa)	1300 nM

Ki measured on COc1ccccc1N1CCN(CCCCNC(=O)c2ccc(-c3cccc([18F])n3)cc2)CC1 = 870 nM

====

# TARGET SYSTEM: UniProt:P35462
# ASSAY DETAILS: biochemical
# Description: Displacement of [3H]spiperone from human dopamine D3 expressed in CHO cell membrane
Listed below: pKi values for each entry.
Expect pKi as a plain number equal to -log10 of the molar concentration.

Worked set:
COMPOUND	pKi
O=C(NCCCCN1CCN(c2cccc(Cl)c2Cl)CC1)c1cc2cc(Br)ccc2[nH]1	9.13
CCCc1c(C(=O)NCCCCN2CCN(c3ccccc3OC)CC2)nnn1Cc1ccccc1Br	8.46
N#Cc1ccc2cc(C(=O)NCCCCN3CCN(c4cccc(Cl)c4Cl)CC3)[nH]c2c1	9.45
CCCc1c(C(=O)NCCCCCN2CCN(c3ccccc3OC)CC2)nnn1Cc1ccccc1Br	8.13
Cc1cccc2c(CN3CCN(c4ccc(Cl)cc4)CC3)cnn12	5.43
O=C(NCCCCN1CCN(c2ccccc2Cl)CC1)c1ccc2ccccc2c1	9.00

pKi measured on COc1ccc(Cn2nnc(C(=O)NCCCCCN3CCN(c4ccccc4OC)CC3)c2C)cc1 = 7.06

pKi measured on O=C(NCCCCN1CCN(c2ccccc2Cl)CC1)c1ccc(Cl)cc1 = 8.77

pKi measured on Cc1c(C(=O)NCCCCN2CCN(c3cccc(Cl)c3Cl)CC2)nnn1Cc1ccccc1 = 8.37

pKi measured on COc1ccccc1N1CCN(CCCCNC(=O)c2cc3cc(C#N)ccc3o2)CC1 = 8.37

====

# TARGET SYSTEM: D(2) dopamine receptor (Homo sapiens)
# ASSAY DETAILS: Displacement of [3H]spiperone from human dopamine D2(short) expressed in CHO cell membrane
QUANTITY MEASURED: Ki (nM)
State just the number; it will be interpreted in nM.

COMPOUND	Ki, nM
COc1ccccc1N1CCN(CCCCNC(=O)c2ccc(-c3cccc([18F])n3)cc2)CC1	16

Then this compound:
Ki measured on COc1ccccc1N1CCN(CCCCNC(=O)c2ccc(-c3ccc([18F])nc3)cc2)CC1 = 12

====

# TARGET SYSTEM: D(2) dopamine receptor (Homo sapiens)
QUANTITY MEASURED: Ki (nM)
State just the number; it will be interpreted in nM.

Worked set:
COMPOUND	VALUE REPORTED
COc1ccc(Cn2nnc(C(=O)NCCCCN3CCN(c4ccccc4OC)CC3)c2C)cc1	55
Cc1c(C(=O)NCCCCCN2CCN(c3cccc(Cl)c3Cl)CC2)nnn1Cc1ccccc1	10
COc1ccccc1N1CCN(CCCCNC(=O)c2cc3ccc(C#N)cc3[nH]2)CC1	158
CCCc1c(C(=O)NCCCCN2CCN(c3ccccc3OC)CC2)nnn1Cc1ccc(OC)cc1	42.7
N#Cc1ccc2cc(C(=O)NCCCCN3CCN(c4cccc(Cl)c4Cl)CC3)[nH]c2c1	339
COc1ccccc1N1CCN(CCCCNC(=O)c2cc3cc(Br)ccc3[nH]2)CC1	110
Clc1ccc(N2CCN(Cc3cnn4c(I)cccc34)CC2)cc1	7590
OCc1ccc2c(CN3CCN(c4ccc(Cl)cc4)CC3)cnn2c1	27500

Ki for D(2) dopamine receptor (Homo sapiens) with input COc1ccccc1N1CCN(CCCCNC(=O)c2cc3cc(Br)ccc3o2)CC1 equals 95.5

Ki for D(2) dopamine receptor (Homo sapiens) with input COc1ccccc1N1CCN(CCCCNC(=O)c2cc3cc(C#N)ccc3s2)CC1 equals 67.6

====

# TARGET SYSTEM: D(2) dopamine receptor (Homo sapiens)
QUANTITY MEASURED: pKi
Expect pKi as a plain number equal to -log10 of the molar concentration.

Worked set:
COMPOUND	pKi
COc1ccccc1N1CCN(CCCCNC(=O)c2nnn(Cc3ccccc3Br)c2C)CC1	7.21
COc1ccccc1N1CCN(CCCCCNC(=O)c2nnn(Cc3ccccc3)c2C)CC1	8.03
COc1ccc(Cn2nnc(C(=O)NCCCCCN3CCN(c4cccc(Cl)c4Cl)CC3)c2C)cc1	8.04
COc1ccc(Cn2nnc(C(=O)NCCCCCN3CCN(c4ccccc4OC)CC3)c2C)cc1	7.77
C#Cc1ccc2cc(C(=O)NCCCCN3CCN(c4ccccc4OC)CC3)sc2c1	6.70
O=C(NCCCCN1CCN(c2ccccc2Cl)CC1)c1ccc2ccccc2c1	6.34

Then this compound:
pKi for D(2) dopamine receptor (Homo sapiens) with input O=C(NCCCCN1CCN(c2cccc(Cl)c2Cl)CC1)c1cc2cc(Br)ccc2[nH]1 equals 5.64

====

# TARGET SYSTEM: D(3) dopamine receptor (Homo sapiens)
QUANTITY MEASURED: pKi
Expect pKi as a plain number equal to -log10 of the molar concentration.

Worked set:
COMPOUND	pKi
COc1ccccc1N1CCN(CCCCNC(=O)c2cc3ccc(C#N)cc3[nH]2)CC1	9.60
COc1ccccc1N1CCN(CCCCNC(=O)c2cc3cc(Br)ccc3o2)CC1	9.16

Then this compound:
pKi measured on COc1ccccc1N1CCN(CCCCNC(=O)c2cc3cc(C#N)ccc3s2)CC1 = 9.34

====

Sequence of the target: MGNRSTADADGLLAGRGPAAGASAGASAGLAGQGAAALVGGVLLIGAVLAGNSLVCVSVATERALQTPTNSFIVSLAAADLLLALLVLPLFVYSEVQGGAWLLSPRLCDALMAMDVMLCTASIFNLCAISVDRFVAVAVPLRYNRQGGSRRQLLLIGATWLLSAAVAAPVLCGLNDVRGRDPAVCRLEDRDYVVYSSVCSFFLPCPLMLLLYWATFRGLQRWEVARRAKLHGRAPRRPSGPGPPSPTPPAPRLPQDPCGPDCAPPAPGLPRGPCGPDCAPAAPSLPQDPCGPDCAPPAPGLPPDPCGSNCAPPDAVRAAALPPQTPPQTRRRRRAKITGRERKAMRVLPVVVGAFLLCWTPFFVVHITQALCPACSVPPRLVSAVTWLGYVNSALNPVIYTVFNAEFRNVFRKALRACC
just bin them by Ki: small value: < 0.03 µM; mid value: ≥ 0.03 µM and < 0.3 µM; large value: ≥ 0.3 µM

Examples with answers:
COMPOUND	CATEGORY LABEL
c1ccc(C2CCN(Cc3cn(-c4ccccc4)nn3)CC2)cc1	small value
COc1ccc(Cn2nnc(C(=O)NCCCCN3CCN(c4ccccc4OC)CC3)c2C)cc1	mid value
COc1ccccc1N1CCN(CCCCNC(=O)c2nnn(Cc3ccccc3)c2C)CC1	large value

// return the class label for c1ccc(C2CCN(Cc3cnn(-c4ccccc4)c3)CC2)cc1
small value

// return the class label for COc1ccccc1N1CCN(CCCCNC(=O)c2cc3cc(Br)ccc3o2)CC1
small value

// return the class label for O=C(NCCCCN1CCN(c2cccc(Cl)c2Cl)CC1)c1cc2cc(Br)ccc2[nH]1
large value

// return the class label for O=C(NCCCCN1CCN(c2cccc(Cl)c2Cl)CC1)c1cc2cc(Br)ccc2o1
large value

// return the class label for COc1ccc(C(=O)NCCCCN2CCN(c3ccccc3Cl)CC2)cc1OC
mid value

// return the class label for O=C(NCCCCN1CCN(c2ccccc2Cl)CC1)c1ccc2ccccc2c1
mid value

// return the class label for COc1ccccc1N1CCN(CCCCNC(=O)c2cc3cc(C#N)ccc3s2)CC1
mid value

// return the class label for Cc1c(C(=O)NCCCCCN2CCN(c3cccc(Cl)c3Cl)CC2)nnn1Cc1ccccc1
mid value

====

# TARGET SYSTEM: D(3) dopamine receptor (Homo sapiens, UniProt P35462)
# Sequence (P35462 whole entry): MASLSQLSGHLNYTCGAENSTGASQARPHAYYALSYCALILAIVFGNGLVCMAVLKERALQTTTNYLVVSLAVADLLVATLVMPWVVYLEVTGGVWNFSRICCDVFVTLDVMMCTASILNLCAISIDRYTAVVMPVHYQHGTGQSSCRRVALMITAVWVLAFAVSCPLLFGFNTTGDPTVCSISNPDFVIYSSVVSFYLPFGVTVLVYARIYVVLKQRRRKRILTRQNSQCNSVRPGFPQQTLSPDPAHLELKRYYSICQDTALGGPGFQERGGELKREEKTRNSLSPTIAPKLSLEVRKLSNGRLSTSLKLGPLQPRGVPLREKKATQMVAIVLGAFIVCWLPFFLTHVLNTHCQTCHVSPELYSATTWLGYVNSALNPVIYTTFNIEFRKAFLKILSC
# ASSAY DETAILS: biochemical
pKi: −log10 of the molar value.
just bin them by pKi: b0: < 8; b1: ≥ 8 and < 9; b2: ≥ 9

Examples with answers:
COMPOUND	CATEGORY LABEL
c1ccc(C2CCN(Cc3cn(-c4ccccc4)nn3)CC2)cc1	b0
COc1ccc(C(=O)NCCCCN2CCN(c3ccccc3Cl)CC2)cc1OC	b1
Clc1ccc(N2CCN(Cc3cnn4c(I)cccc34)CC2)cc1	b0
COc1ccccc1N1CCN(CCCCNC(=O)c2cc3cc(Br)ccc3[nH]2)CC1	b2
COc1ccc(Cn2nnc(C(=O)NCCCCCN3CCN(c4cccc(Cl)c4Cl)CC3)c2C)cc1	b0
CCCc1c(C(=O)NCCCCN2CCN(c3cccc(Cl)c3Cl)CC2)nnn1Cc1ccccc1	b1

Turning now to a further record.
// return the class label for C#Cc1ccc2sc(C(=O)NCCCCN3CCN(c4ccccc4OC)CC3)cc2c1
b2
